Source of measurements: the Immune Epitope Database (IEDB)

Target: HLA-A*11:01
Assay: IEDB peptide-MHC binding, purified MHC/direct/fluorescence; filed as Kd, often an IC50 or EC50 that approximates it; bounds were set here for any values at or beyond the usual limits of such assays
Conditions: source organism: West Nile virus
readout-kind: Kd

Ask: Name the recorded Kd of the item VHREWFMDL in your answer.
Result: ≥ 20 µM

---

Biological target: HLA-A*02:01
Test: IEDB peptide-MHC binding, purified MHC/competitive/fluorescence; filed as Kd, often an IC50 or EC50 that approximates it; bounds were set here for any values at or beyond the usual limits of such assays
Details: source organism: Salmonella enterica subsp. enterica serovar Typhi
readout-kind: Kd (nM)
Express your answer in nM, writing the number without its unit.

Ask: Return the recorded Kd value; entry: KQRCALPSL
Result: 796
